Tested on: HEK293 cells
Assay: Preliminary screening as mRNA vectors, EGFP mRNA transfection of HEK293 cells
Type: cell-based
Conditions: EGFP mRNA 50 ng per well, 96-well plates; percentage of GFP fluorescent cells relative to total number of cells (Hoechst)
metric: Absolute mRNA transfection efficiency in HEK293 cells (%)

1) CCCCCCCCCCCCNc1nc(NCCN(CC)CC)nc(SCCCCCCCCC)n1 25.6
2) CCCCCCCCCCCCCCCCCCNc1nc(NCCN2CCCCC2)nc(SCCCCCCCC)n1 3.5
3) CCCCCCCCCCCCCCSc1nc(NCC2CCN(C)CC2)nc(SCCCCCCC)n1 88.7
4) CCCCCCCCCCCCCCSc1nc(NCCCCCCC)nc(NCCN(C)C)n1 25.7
5) CCCCCCCCCCCCCNc1nc(NCCCN2CCN(C)CC2)nc(SCCCCCCCCCC)n1 2.7
6) CCCCCCCCCCCCN(CCCCCCCCCCCC)c1nc(NCCCN2CCN(C)CC2)nc(SCCCCCCC)n1 1.0
7) CCCCCCCCCCCCCCCCCCSc1nc(NCCN2CCCCC2)nc(N(CCCCCCCCCCCC)CCCCCCCCCCCC)n1 0.3
8) CCCCCCCCCCSc1nc(NCCCCCCC)nc(NCC2CCN(C)CC2)n1 1.0
9) CCCCCCCCSc1nc(NCCN2CCOCC2)nc(SCCCCCCC)n1 35.6
10) CCCCCCCCCCCCCCSc1nc(NCCN2CCN(C)CC2)nc(SCCCCCC)n1 45.3
11) CCCCCCCCCCCNc1nc(NCCCN(C)C)nc(SCCCCCCC)n1 18.9
12) CCCCCCCCCCCCCCCNc1nc(NCCCN(C)C)nc(SCCCCCCCCCC)n1 3.5
13) CCCCCCCCCCCCCCCCSc1nc(NCCCCCCC)nc(NCCN2CCCCC2)n1 0.8
14) CCCCCCCCCCCCNc1nc(NCCN(C)C)nc(SCCCCCCCCCCCC)n1 1.7
15) CCCCCCCCCCCCNc1nc(NCCN(C)C)nc(SCCCCCCC)n1 5.4
16) CCCCCCCCCCCCSc1nc(NCCCN2CCOCC2)nc(SCCCCCCC)n1 20.7
17) CCCCCCCCCCCCCCCNc1nc(NCCN2CCCCC2)nc(SCCCCCCCC)n1 2.6
